TARGET DESC: TYK2 (Homo sapiens, UniProt P29597)
Construct: endogenous in cells; mixed lysate 1:2
Sequence (P29597 whole entry): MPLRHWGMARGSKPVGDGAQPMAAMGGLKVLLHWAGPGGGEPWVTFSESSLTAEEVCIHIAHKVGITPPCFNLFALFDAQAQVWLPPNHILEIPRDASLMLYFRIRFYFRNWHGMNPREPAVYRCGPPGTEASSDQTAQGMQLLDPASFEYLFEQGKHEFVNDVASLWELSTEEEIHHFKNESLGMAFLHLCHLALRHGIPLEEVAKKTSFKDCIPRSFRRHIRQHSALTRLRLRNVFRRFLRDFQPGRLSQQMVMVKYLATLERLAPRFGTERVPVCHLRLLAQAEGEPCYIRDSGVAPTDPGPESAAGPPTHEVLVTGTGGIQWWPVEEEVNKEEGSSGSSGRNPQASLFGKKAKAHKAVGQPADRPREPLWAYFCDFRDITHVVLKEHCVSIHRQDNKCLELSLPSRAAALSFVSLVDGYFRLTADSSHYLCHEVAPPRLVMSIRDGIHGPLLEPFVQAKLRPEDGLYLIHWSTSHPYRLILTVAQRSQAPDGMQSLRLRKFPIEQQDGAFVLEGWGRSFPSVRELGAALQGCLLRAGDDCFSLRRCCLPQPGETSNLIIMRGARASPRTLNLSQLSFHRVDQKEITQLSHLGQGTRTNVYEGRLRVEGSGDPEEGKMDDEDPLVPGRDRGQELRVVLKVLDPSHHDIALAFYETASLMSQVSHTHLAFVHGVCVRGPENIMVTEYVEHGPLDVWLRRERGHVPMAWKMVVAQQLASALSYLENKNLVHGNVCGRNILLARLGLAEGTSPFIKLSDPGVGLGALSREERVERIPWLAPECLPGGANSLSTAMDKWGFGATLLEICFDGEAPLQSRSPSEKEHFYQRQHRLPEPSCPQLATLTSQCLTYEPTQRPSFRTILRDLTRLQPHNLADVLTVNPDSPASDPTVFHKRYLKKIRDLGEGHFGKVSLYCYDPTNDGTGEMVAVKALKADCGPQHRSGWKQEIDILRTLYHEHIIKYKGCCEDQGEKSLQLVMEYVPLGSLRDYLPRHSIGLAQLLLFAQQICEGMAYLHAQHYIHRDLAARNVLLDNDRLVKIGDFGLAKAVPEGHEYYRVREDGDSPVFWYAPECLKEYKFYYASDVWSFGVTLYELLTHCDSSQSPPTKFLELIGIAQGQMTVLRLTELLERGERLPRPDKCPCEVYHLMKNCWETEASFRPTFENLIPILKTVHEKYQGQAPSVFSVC
TEST METHOD NOTES: Kinobeads assay with immunodetection, TYK2
MEASUREMENT CONDITIONS: Kinobeads assay, mixed Molt4/Ramos lysate; read-out: Inhibition values (IC50) Tyk2
pIC50: −log10 of the molar value.
Record form. Attribute: pIC50. Fill in for each entry.

Required: pIC50, one value per molecule below.
1. Cn1cc(Nc2nccc(NC[C@H]3CCCN3C(=O)CCC#N)n2)cn1 [Example 93]
2. Cn1cc(Nc2ncc(F)c(NC[C@H]3CCCN3C(=O)CC#N)n2)cn1 [Example 113]
3. Cc1cnc(Nc2cnn(CC(F)F)c2)nc1NC[C@H]1CCN(C(=O)CC#N)C1 [Example 129]
4. Cl.Cn1cc(Nc2ncc(F)c(NC[C@H]3CCCN3S(C)(=O)=O)n2)cn1 [Example 74, Hydrochloride]
5. CN(C)CC(=O)N1CCC[C@@H]1CNc1nc(Nc2cnn(C)c2)ncc1Cl [Example 53]
6. Cn1cc(Nc2ncc(Cl)c(NC[C@H]3CCCN3CC(=O)NCC#N)n2)cn1 [Example 99]
7. CC(=O)N1CC[C@@H](CNc2nc(Nc3cnn(C)c3)ncc2Cl)C1 [Example 26]

Ans:
1: > 7.00; 2: > 7.00; 3: > 7.00; 4: > 7.00; 5: 6.00 to 7.00; 6: 6.00 to 7.00; 7: 6.00 to 7.00

Required: pIC50, one value per molecule below.
1. CC(=O)N1CC(CNc2nc(Nc3cnn(C)c3)ncc2Cl)C1 [Example 16]
2. Cn1cc(Nc2ncc(Cl)c(NC[C@H]3CCN(CCS(C)(=O)=O)C3)n2)cn1 [Example 55]

Ans:
1: < 5.00; 2: 6.00 to 7.00

----------
TARGET DESC: JAK1 (Homo sapiens, UniProt P23458)
Construct: endogenous in cells; mixed lysate 1:2
Sequence (P23458 whole entry): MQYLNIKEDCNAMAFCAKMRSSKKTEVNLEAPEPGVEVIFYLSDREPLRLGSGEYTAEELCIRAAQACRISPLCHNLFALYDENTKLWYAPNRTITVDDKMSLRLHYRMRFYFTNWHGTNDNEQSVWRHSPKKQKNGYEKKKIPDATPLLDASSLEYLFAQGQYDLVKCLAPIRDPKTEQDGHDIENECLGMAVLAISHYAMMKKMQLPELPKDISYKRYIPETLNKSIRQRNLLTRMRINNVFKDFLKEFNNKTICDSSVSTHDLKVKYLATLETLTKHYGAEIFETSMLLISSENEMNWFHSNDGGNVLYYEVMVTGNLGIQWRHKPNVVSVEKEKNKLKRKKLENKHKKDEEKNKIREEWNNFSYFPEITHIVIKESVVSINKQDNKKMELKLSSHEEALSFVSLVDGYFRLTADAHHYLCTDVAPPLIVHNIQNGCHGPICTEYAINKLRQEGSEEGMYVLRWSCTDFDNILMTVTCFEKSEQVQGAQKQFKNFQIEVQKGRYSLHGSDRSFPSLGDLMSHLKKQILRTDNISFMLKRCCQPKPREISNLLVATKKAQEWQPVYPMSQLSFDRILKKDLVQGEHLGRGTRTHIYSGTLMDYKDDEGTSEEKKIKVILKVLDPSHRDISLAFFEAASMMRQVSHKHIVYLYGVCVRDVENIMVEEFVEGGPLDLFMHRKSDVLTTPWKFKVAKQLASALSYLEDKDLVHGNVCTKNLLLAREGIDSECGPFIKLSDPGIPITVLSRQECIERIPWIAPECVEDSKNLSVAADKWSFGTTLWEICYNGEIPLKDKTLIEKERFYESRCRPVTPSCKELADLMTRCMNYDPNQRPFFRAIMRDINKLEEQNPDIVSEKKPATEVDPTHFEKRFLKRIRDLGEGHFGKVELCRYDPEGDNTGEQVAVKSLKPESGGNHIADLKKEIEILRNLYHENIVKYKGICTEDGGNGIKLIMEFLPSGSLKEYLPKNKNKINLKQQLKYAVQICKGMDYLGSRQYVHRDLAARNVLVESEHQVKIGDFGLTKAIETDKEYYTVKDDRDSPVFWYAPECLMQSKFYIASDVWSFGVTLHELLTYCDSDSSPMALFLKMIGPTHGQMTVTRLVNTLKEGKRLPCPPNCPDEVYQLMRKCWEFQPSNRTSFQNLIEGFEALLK
TEST METHOD NOTES: Kinobeads assay with immunodetection, JAK1
MEASUREMENT CONDITIONS: Kinobeads assay, mixed Molt4/Ramos lysate; read-out: Inhibition values (IC50) JAK1
Record form. Attribute: IC50. Fill in for each entry.

Known IC50 results, listed for orientation:
{"columns": ["STRUCTURE NOTATION", "IC50"],
 "data": [
  ["CC(C)NC(=O)Cn1cc(Nc2nccc(NC[C@H]3CCCN3C(=O)CCC#N)n2)cn1", "100 to 1000 nM"],
  ["CC(=O)N1CC[C@@H](CNc2nc(Nc3cnn(CCO)c3)ncc2Cl)C1", "100 to 1000 nM"],
  ["Cn1cc(Nc2ncc(Cl)c(NC[C@@H]3CCCN(C(=O)CCC#N)C3)n2)cn1", "100 to 1000 nM"]
]}

Required: IC50, one value per compound below.
1. CS(=O)(=O)N1CCC[C@@H]1CNc1nc(Nc2cnn(CCO)c2)ncc1Cl
2. CC(C)S(=O)(=O)CCN1CCC[C@@H]1CNc1nc(Nc2cnn(C)c2)ncc1Cl
3. Cc1cnc(Nc2cnn(C)c2)nc1NC[C@@H]1CCCN1CCC#N
4. Cc1cnc(Nc2cnn(CC(F)F)c2)nc1NC[C@H]1CCCN1C(=O)CC#N
5. CN(C)C(=O)Cn1cc(Nc2ncc(Cl)c(NC[C@@H]3CCCN3S(C)(=O)=O)n2)cn1

Ans:
["< 100 nM", "< 100 nM", "< 100 nM", "< 100 nM", "< 100 nM"]
